Data origin, for the record: ChEMBL document CHEMBL1201862

- Test system: A498
- assay.notes: NCI tumour cell line growth inhibition, 48 h
Active and inactive are the calls of the source. Cut-off read from the data, not from the text of the source: active = GI50 up to about 1.1 µM and inactive = higher.
Please reply with one of these outcomes: active, inactive

Look up the recorded call for COCCOc1nc(-c2ccccc2)nc2ccccc12 in this test.
inactive

Likewise for Cc1[nH]nc(-c2ccon2)c1N=O ?
inactive

Likewise for CN(C)CCCNC(=O)CCNC(=O)c1cc(NC(=O)c2cc(NC(=O)c3cc(NC(=O)c4nc(NC(=O)CCCNC(=O)c5cc(NC(=O)c6cc(NC(=O)c7cc(NC(=O)c8nccn8C)cn7C)cn6C)cn5C)cn4C)cn3C)cn2C)cn1C ?
inactive

Likewise for CCOC(=O)c1c(C)n(Cc2ccc(Cl)cc2Cl)c2c1cc(O)c1[nH]c3c(c12)CCCC3 ?
inactive

Likewise for CN(C(=O)C1CC1)C1C2CN3CCC(O2)C13 (stereo not given) ?
inactive

Likewise for COc1cc2c(cc1OC)[C@@H](Nc1ccc(C#N)cc1)C1COC(=O)[C@@H]1C2c1cc(OC)c(O)c(OC)c1 (stereo not given in full) ?
active

Likewise for COc1cccc(C2SCC(=O)N2c2ccc(-n3c(-c4ccccc4)nc4ccccc4c3=O)cc2)c1OC (stereo not given) ?
inactive

Likewise for C/C=C/C=N/N(C(=O)c1cc([N+](=O)[O-])cc([N+](=O)[O-])c1)C1=NN=C(c2ccccc2)C(c2ccccc2)N1 (stereo not given) ?
inactive

Likewise for CSc1nc(-c2ccccc2)nc(C(C#N)C#N)n1 ?
inactive

Likewise for Cc1c(CCl)c(=O)oc2c(C)c3occ(CCl)c(=O)c3cc12 ?
inactive

Likewise for CC1=C(C(=O)Nc2cccc(Cl)c2)C(c2ccc([N+](=O)[O-])cc2)C(C(=O)Nc2cccc(Cl)c2)=C(C)N1 ?
inactive

Likewise for NC(=O)c1cc(-c2ccc(-n3ccnc3)cc2)nnc1O ?
inactive

Likewise for COc1ccc(C(CC(=O)c2ccc3c(c2)OCO3)c2c(O)oc3ccccc3c2=O)cc1OC (stereo not given) ?
inactive

Likewise for C1OCC2S[C@@H]3COCO[C@@H]3C2O1 (stereo not given in full) ?
inactive

Likewise for CN(C)c1ccc(/C=C(\NC(=O)c2ccccc2)C(=O)Nc2ccccc2C(=O)NCc2ccccc2)cc1 ?
inactive

Likewise for Cc1[nH]n(C(=N)N)c(=O)c1CCO ?
inactive

Likewise for O=C(Nc1sccc1S(=O)(=O)c1ccc(Cl)cc1)c1ccc(Cl)cc1 ?
inactive

Likewise for CC1=NN(c2nc(N)nc(CN3CCOCC3)n2)C(C)(C)C1 ?
inactive

Likewise for NCC(=O)NC(CO)C(=O)O (stereo not given) ?
inactive

Likewise for O=C1NC2CCCCC2NC1=C(C(=O)c1ccccc1)C(=O)c1ccccc1 (stereo not given) ?
inactive

----------
- Tested on: HT-29
- assay.notes: NCI tumour cell line growth inhibition, 48 h
Activity calls are given as the source filed them. Rule as the data show it: active = GI50 up to about 1.1 µM and inactive = higher.
Please reply with one of these outcomes: 1 = active, 0 = inactive

Look up the recorded call for COc1ccc(-c2nnc(-c3c(C)n(C)n(-c4ccccc4)c3=O)o2)cc1 in this test.
0

Likewise for CC(=O)/N=C1\NC(=O)/C(=C/c2ccc(Cl)cc2Cl)N1C ?
0

Likewise for CN(C)Cc1cc(C(=O)/C=C/c2cccc(Cl)c2)cc(CN(C)C)c1O ?
0

Likewise for CN(C)c1c([O-])c(=[N+](C)C)c1=O ?
0

Likewise for O=C(/C=C/c1ccccc1O)c1cccnc1 ?
0

Likewise for Nc1ccc(C(=O)NN2C(=O)C(Cl)C2c2ccccc2O)cc1 (centres undefined) ?
0

Likewise for COc1ccc(C(CC(=O)c2ccc3c(c2)OCO3)c2c(O)oc3ccccc3c2=O)cc1OC (centres undefined) ?
0

Likewise for C=CCN1C(=O)/C(=C/c2ccc(C)cc2)NC1=S ?
0

Likewise for CC1=Nc2nc3ccccc3n2C(C)(C)C1 ?
0

Likewise for Cc1c(CCCl)c(N=P(c2ccccc2)(c2ccccc2)c2ccccc2)n2c(nc3ccccc32)c1C#N ?
0

Likewise for Oc1cnnc2nc3ccccc3n12 ?
0

Likewise for CCCCCCC1CC(=O)C1(Cl)Cl (centres undefined) ?
0

Likewise for CN(C(=O)c1ccccc1)C1CCCC(=O)CC1 (centres undefined) ?
0

Likewise for Cc1c2cccc-2c(OCCO)cc2c1[nH]c1ccccc12 ?
0

Likewise for CCOC(=O)c1cc(C2=C(S)N(CC(C)CC)CC2)c(C(=O)CC)[nH]1 (centres undefined) ?
0

Likewise for OCc1ccccc1C1CSCSC1 ?
0

Likewise for COc1cccc(C2SCC(=O)N2c2ccc(-n3c(-c4ccccc4)nc4ccccc4c3=O)cc2)c1OC (centres undefined) ?
0

Likewise for C(/C=C/N1CCCC1)=C\c1nc(N2CCCC2)c2ccccc2n1 ?
0

Likewise for CC1=C2[C@@H](c3ccccc3)C3C=CC2(C=C3C(F)(F)F)N(C(=O)NC2CCCCC2)C1=O (some centres undefined) ?
0

Likewise for CC1=C2O[C@]3(O)C=C2C(=C(O)C1=O)[C@@H]1O[C@H](CC[C@H](C)/C=C(\C)C[C@@H](C)C[C@@H]3C)[C@H](C)[C@H](O)[C@H]1C [KENDOMYCIN] ?
1

Likewise for CCOC(=O)c1c(C(F)(F)F)oc2c1ccc1nc3nonc3nc12 ?
0

Likewise for CN(C(=O)C1CC1)C1C2CN3CCC(O2)C13 (centres undefined) ?
0

Likewise for CS(C)(=O)=N/C=C\C(=O)C(Cl)(Cl)Cl ?
0

Likewise for O=C(C(Cl)=C(N1CCCCC1)N1CCCCC1)C(Cl)Cl ?
0
